# System tested: T1, human TL1A extracellular domain with N-terminal HIS and FLAG tag (human, UniProt O95150 72-251)
# T1 construct: the whole entry is named
# T1 sequence: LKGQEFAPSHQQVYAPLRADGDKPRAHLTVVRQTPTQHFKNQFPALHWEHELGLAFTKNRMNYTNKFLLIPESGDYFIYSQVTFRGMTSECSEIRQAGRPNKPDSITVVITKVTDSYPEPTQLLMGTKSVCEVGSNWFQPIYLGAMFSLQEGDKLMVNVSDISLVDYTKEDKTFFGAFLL
# Assay overview: SPR Run 6, purified Ab captured on Protein A, TL1A 5 ug/mL, timepoint 44
# Method: 1.5. Antibody expression and antigen binding as determined by SPR. Using a CM5 sensor chip (GE Healthcare) Protein A (Pierce) was coupled to the chip surface using an amine coupling kit (GE Healthcare). Protein A was coupled on flow cell 1 and 2 (or alternatively 3 and 4) using a BIACORE® T200. […] At the end of injection of the supernatant or purified antibody the change in response units was measured. […] The response units were measured prior to the end of the dissociation phase. […]
Measured metric: TL1A Binding Level (Early) (RU)

[
  {
    "Binder": "320-459 (antibody, human IgG1, name in Kabat numbering, V domains shown, human IgG1, lambda) VH: QVQLVQSGAEVKKPGASVKVSCKASGYTFTSYDKNWVRQAPGQGLEWMGWLNPNSGNTGYAQKFQGRVTMTADRSTSTAYMELSSLRSEDTAVYYCAREVPETAAFEYWGQGTLVTVSS VL: QSVLTQPPSVSGAPGQRVTISCTSSSSDIGAGLGVHWYQQLPGTAPKLLIEGYYNRPSGVPDRFSGSKSGTSASLTITGLLPEDEGDYYCQSYDGTLSALFGGGTKLTVLG",
    "Display unit": "RU",
    "Measured number": 20
  },
  {
    "Binder": "320-467 (antibody, human IgG1, name in Kabat numbering, V domains shown, human IgG1, lambda) VH: QVQLVQSGAEVKKPGASVKVSCKASGYTFTSYDIHWVRQAPGQGLEWMGWLNPNSGNTGYAQKFQGRVTMTADRSTSTAYMELSSLRSEDTAVYYCAREVPETAAFEYWGQGTLVTVSS VL: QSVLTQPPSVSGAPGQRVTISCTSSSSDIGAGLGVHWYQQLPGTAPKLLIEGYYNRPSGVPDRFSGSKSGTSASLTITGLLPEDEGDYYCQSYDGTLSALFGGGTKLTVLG",
    "Display unit": "RU",
    "Measured number": 44
  },
  {
    "Binder": "320-433 (antibody, human IgG1, name in Kabat numbering, V domains shown, human IgG1, lambda) VH: QVQLVQSGAEVKKPGASVKVSCKASGYTFTDYDINWVRQAPGQGLEWMGWLNPNSGNTGYAQKFQGRVTMTADRSTSTAYMELSSLRSEDTAVYYCAREVPETAAFEYWGQGTLVTVSS VL: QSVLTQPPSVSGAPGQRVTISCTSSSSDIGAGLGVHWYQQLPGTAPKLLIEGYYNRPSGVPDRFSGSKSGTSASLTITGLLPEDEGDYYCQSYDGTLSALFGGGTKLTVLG",
    "Display unit": "RU",
    "Measured number": 90
  }
]
